Target: hGIPR (Homo sapiens)
Sequence (P48546 22-466): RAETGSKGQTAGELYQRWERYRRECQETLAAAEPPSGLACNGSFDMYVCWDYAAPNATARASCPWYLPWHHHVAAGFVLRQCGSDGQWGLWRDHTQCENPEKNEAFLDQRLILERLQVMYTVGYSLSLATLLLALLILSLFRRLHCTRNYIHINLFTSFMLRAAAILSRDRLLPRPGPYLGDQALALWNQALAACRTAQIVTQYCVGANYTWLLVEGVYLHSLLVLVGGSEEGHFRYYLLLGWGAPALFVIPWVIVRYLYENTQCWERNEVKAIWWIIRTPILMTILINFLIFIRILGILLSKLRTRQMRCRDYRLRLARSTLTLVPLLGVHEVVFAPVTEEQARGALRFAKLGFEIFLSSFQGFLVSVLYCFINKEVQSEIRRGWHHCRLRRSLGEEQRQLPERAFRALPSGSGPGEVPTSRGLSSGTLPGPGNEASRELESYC
Experiment: Functional cAMP activity in the presence of 1% HSA
Format: cell-based
Settings: read-out: cAMP Rel EC50, hGIPR
Starred links: 1 amine or outer side, 2 acyl side, 3 side chain; linkers in the order of their positions; H or OH if unused. Non-standard residues stand in square brackets, D forms with d. Groups on a side chain read outwards from the residue. No end group written: not given here. *: point of attachment. C18 diacid = O=C(O)CCCCCCCCCCCCCCCCC(=O)*; αMePhe(2-F) = C[C@](N)(Cc1ccccc1F)C(=O)O; γGlu = O=C(O)[C@H](CCC(=O)[*:2])N[*:1]; αMe4Pal = C[C@](N)(Cc1ccncc1)C(=O)O; αMeY = C[C@](N)(Cc1ccc(O)cc1)C(=O)O; 4Pal = N[C@@H](Cc1ccncc1)C(=O)O; αMeL = CC(C)C[C@](C)(N)C(=O)O; αMeS = C[C@](N)(CO)C(=O)O; Orn = NCCC[C@H](N)C(=O)O; AEEA = NCCOCCOCC(=O)O; Aib = CC(C)(N)C(=O)O
EC50 by entry:
Kindly provide the numeric value in µM only, without the unit symbol.

// query What value of measured EC50 is listed for Y[Aib]QGTFTSD[4Pal]SQ[αMeL]LDKK([γGlu-dE-dE-C18 diacid])AQ[αMe4Pal]AFIEYLIE[Aib]GPSSGAPPPSGSE-NH2 [Example 926] ?
// result 0.0135

// query Entry under review: H-Y[Aib]QGTFTSDFS[Orn][αMeL]LDKK([AEEA-γGlu-C18 diacid])AQ[Aib]AFIEYLLE[Aib]GPSSGAPPPSGT-NH2 [Example 200] . Reported EC50?
// result 0.0137

// query Request the reported EC50 associated with H-Y[Aib]QGT[αMePhe(2-F)]TSD[4Pal]SILLDKK([γGlu-γGlu-C18 diacid])AQ[Aib]AFIE[αMeY]LEEGGPSSGAPPPSGTE-NH2 [Example 551]
// result 0.00188

// query Record request: EC50 value, item H-Y[Aib]QGTFTSDFS[Orn][αMeL]LDKK([AEEA-γGlu-C18 diacid])AQ[Aib]AFIEYLLE[Aib]GPSSGAPPPSGE-NH2 [Example 110]
// result 0.0198

// query Bench note: what EC50 did H-Y[Aib]QGTFTSD[4Pal]SQ[αMeL]LDKK([AEEA-γGlu-C18 diacid])AQ[αMe4Pal]AFIEYLIE[Aib]GPSSGAPPPSGSEE-NH2 [Example 897] show?
// result 0.0259

More entries:
// query Query (substance): H-Y[Aib]QGTFTSDFS[Orn][αMeL]LDKK([AEEA-AEEA-γGlu-C18 diacid])AQ[Aib]AFIEYLLE[Aib]GHSSGAPPPSGE-NH2 [Example 186] ; field requested: EC50
// result 0.018

// query I have this substance here, H-Y[Aib]QGTFTSDFS[Orn][αMeL]LDKK([γGlu-AEEA-γGlu-C18 diacid])AQ[Aib]AFIEYLLE[Aib]GPSSGAPPPSGS-NH2 [Example 193] , and I need its recorded EC50.
// result 0.0127

// query What value of EC50 has been recorded for this entry: H-Y[Aib]QGT[αMePhe(2-F)]TSD[4Pal][αMeS]I[αMeL]LD[Orn]K([AEEA-γGlu-C18 diacid])AQ[Aib][Orn]FIEYLIEAGPSSGEPPPEEG-NH2 [Example 484]
// result 0.00159

// query Looking for the measured EC50 of H-Y[Aib]QGTFTSD[4Pal]S[Orn][αMeL]LDKK([AEEA-γGlu-γGlu-C18 diacid])AQ[αMe4Pal]AFIEYLIE[Aib]GPSSGAPPPSGS-NH2 [Example 867] , can you help?
// result 0.0162

// query Which EC50 reading was recorded for the substance H-Y[Aib]QGTFTSDFS[Orn][αMeL]LDKK([AEEA-γGlu-C18 diacid])AQ[Aib]AFIEWLLEGGHSSGAPPPSGS-NH2 [Example 170] ?
// result 0.0435
